# experiment-description: Cytotoxicity on PMA-differentiated THP-1 cells
# Assay type: cell-based
# conditions: human, PMA-differentiated macrophage-like THP-1 cells
measurement-kind: CC50 (µM)
Express your answer in µM, writing the number without its unit.

Ask: Given the entry CCCCCCCCCCCCCCCCOP(=O)([O-])OCC[N+](C)(C)C [MILT, Miltefosine] , report its measured CC50.
Result: 36.6
